Across several studies, compounds have been characterized by their IC50 on IRAK4 (Homo sapiens (Human)); a selection follows.

Batch request: IC50 per item, same order as input.
1. C[C@]1(O)CC[C@H](Nc2nc(Nc3cccc(C(=O)NC4CCNCC4)c3)nc3ccsc23)CC1
2. CCC[C@H](N)c1cccc(-c2cc(OCCOC)c3cnn(-c4cncc(CO)n4)c3c2)n1
3. CCc1c[nH]c(=O)c2cc3ccnc(OC[C@@H]4CCC(=O)N4)c3cc12
4. COc1cc2nc(C3CCOCC3)cn2cc1NC(=O)c1cccc(C(F)(F)F)n1
5. Cc1cccc(-n2ncc3ccc(-c4ncc(CN)s4)cc32)n1
6. CC(C)Nc1cc(-n2ncc3cc(C#N)cnc32)ncc1-c1cc(C2CCCOC2)no1 (centres unmarked)

Result string:
100 to 1000 nM
< 100 nM
8.5 nM
10 to 50 nM
100 to 1000 nM
2 nM

Please state, for each entry, its recorded IC50.
1. COC(=O)N[C@H]1CC[C@H](NC(=O)c2cnc3sc(-c4cncs4)cc3c2NC(C)C)CC1
2. CC[C@H]1[C@@H](COc2csc3cc(C(N)=O)c(OC)nc23)NC(=O)C1(F)F
3. Cc1cccc(-n2ncc3ccc(-c4cncc(N(C)C)c4)cc32)n1
4. N#Cc1ccc2ncnc(N[C@H]3CC[C@H](N4CCN(CCOCCOCCOc5ccc6c(c5)C(=O)N(C5CCC(=O)NC5=O)C6=O)CC4)CC3)c2c1 (some centres unmarked)
5. CC(C)(O)[C@H](F)CNC(=O)c1cnc(-c2cnn3cc(Cl)cnc23)cc1NCCCO
6. Cc1nnc(-c2cnc(-c3cccc(-c4cnn(C)c4)c3)nc2NC2CCC(N)CC2)s1 (centres unmarked)
7. Cc1cccc(-n2ncc3ccc(-c4cccc(C(C)N)n4)cc32)n1 (centres unmarked)

Result string:
1: 9.3 nM; 2: 0.6 nM; 3: 100 to 1000 nM; 4: ≥ 1000 nM; 5: 11 nM; 6: < 100 nM; 7: < 100 nM

Query string: Query: IC50; subject: COC(=O)N[C@H]1CC[C@H](NC(=O)c2cnc(-c3cnc4cc(C#N)cnn34)cc2NC(C)C)CC1
Result string: 13 nM

====

Collected literature values of IC50 measured for IRAK4 (Homo sapiens (Human), UniProt Q9NWZ3).

Before answering, review these 4 worked examples.
Cn1cc(-c2cccc(-c3ncc(-c4cnn(C)c4)c(N4CC[C@H](F)[C@@H](O)C4)n3)c2)cn1 | < 100 nM
N[C@H](c1cccc(-c2ccc3cnn(-c4nccc(C(F)(F)F)n4)c3c2)n1)[C@H]1C[C@@H](O)C1 | ≤ 100 nM
Cc1cc(Nc2nc(NC3CCOCC3)c3c(ccn3-c3cnn(C)c3)n2)sn1 | ≤ 100 nM
C[C@H](N)c1cccc(-c2cc(-c3nc(C(F)(F)F)cs3)c3cnn(-c4cccc(CO)n4)c3c2)n1 | < 100 nM

List IC50 for every entry below, keeping the order given.
1. CCc1nc2c(N(CC)[C@H]3CC[C@H](N4CCOCC4)CC3)ncnc2s1
2. O=C1CCCc2ccc(-c3ccc4cnn(-c5cccc(C(F)(F)F)n5)c4c3)nc21
3. CCCC(N)c1cccc(-c2ccc3cnn(-c4cccc(C(F)(F)F)n4)c3c2)n1 (stereo not shown)
4. CC(C)(CO)Nc1cc(-c2cnn3cc(Cl)cnc23)ncc1C(=O)NC[C@@H](F)C(C)(C)O

Result string:
1. ≥ 5000 nM
2. > 10000 nM
3. < 100 nM
4. 2 nM

Parameter requested: IC50. Apply to each item below.
1. O=C(CCc1cn(-c2ccccc2)c(NC(=O)c2cccc(-c3cn[nH]c3)c2)n1)Nn1cnnc1
2. OCCc1ccc2ncnc(N[C@H]3CC[C@H](N4CCOCC4)CC3)c2c1
3. COc1ncc(-c2cc3c(NC(C)C)c(C(=O)NC[C@@H](F)C(C)(C)O)cnc3s2)s1
4. CC(C)(O)[C@H](F)CNC(=O)c1cnc(Nc2ccc3ncc(C#N)cc3n2)cc1NC1CCC(F)C1 (stereo partly shown)

Result string:
50 to 100 nM
≤ 5000 nM
53.5 nM
2.6 nM

====

pIC50 for IRAK4 (Homo sapiens (Human)) - collated from the literature.
pIC50: −log10 of the molar value.

Worked set:
CCC1(O)CCC(Nc2nc(Nc3cc(C)ns3)nc3ccsc23)CC1 (stereo not shown) | 6.00 to 7.00
Cn1cc(-c2cccc(-c3ncc(-c4cnn(C)c4)c(N[C@H]4CC[C@@H](N5CCOCC5)CC4)n3)c2)cn1 | > 7.00
Cn1cc(-n2ccc3nc(Nc4cnn(-c5ccccc5)c4)nc(O[C@H]4CCOC4)c32)cn1 | 6.00 to 7.00

Please supply pIC50 for each of the following items, keeping them in order.
1. CC(=O)NC12CC(Nc3nc(-c4cccc(-c5cnn(C)c5)c4)ncc3-c3cnn(C)c3)(C1)C2
2. CN[C@H]1CC[C@H](Oc2ncnc3sc4c(c23)[C@@H](C[C@@H](O)C(N)=O)CC4)CC1

Result string:
> 7.00
> 5.30

Hi! Can you tell me pIC50 for each of these compounds?
1. Oc1cc(-c2ccc3ncnc(N[C@H]4CC[C@H](N5CCC(F)(F)CC5)CC4)c3c2)cnc1F
2. CC(=O)N[C@H]1C[C@H](Nc2nc(-c3cccc(-c4cnn(C)c4)c3)ncc2-c2cnn(C)c2)C1

Result string:
["> 9.30", "6.00 to 7.00"]

====

pIC50: −log10 of the molar value.
The compounds below each have a reported pIC50 tested on IRAK4 (Homo sapiens (Human), UniProt Q9NWZ3); the values come from various publications.

Check out these entries, answers already filled in.
Cc1cc(Nc2nc(N[C@H]3CC[C@@H](O)CC3)c3sccc3n2)sn1 | ≥ 7.00
CN1CCC(NC(=O)c2cc(Nc3nc(O[C@H]4CCOC4)c4c(ccn4-c4cnn(C)c4)n3)cs2)CC1 | ≥ 7.00
Cn1cc(Nc2nc(O[C@H]3CC[C@H](N(C)C)CC3)c3c4c(sc3n2)CCC4CC(N)=O)cn1 (some centres unmarked) | ≥ 5.30
O=C(Nc1nc(CCCC(=O)N2CCCCC2)cn1-c1ccccc1)c1cccc(-c2ccc3[nH]ncc3c2)c1 | > 7.30
c1c[nH]c(Nc2nc(N[C@H]3CC[C@H](N4CCOCC4)CC3)c3c4c(sc3n2)CCCC4)n1 | 4.30 to 4.70
NC(=O)CC[C@@H]1CCCc2sc3ncnc(O[C@H]4CC[C@H](N)CC4)c3c21 | 4.70 to 5.30

Count: 7. Required value per item: pIC50.
1. CCS(=O)(=O)CC1CCc2sc3ncnc(O[C@H]4CC[C@H](N(C)C)CC4)c3c21 (some centres unmarked)
2. CC(C)Nc1cc(-c2cnn3cc(Cl)cnc23)ncc1C(=O)NCC(F)C1(O)COC1 (centres unmarked)
3. Cn1cc(-c2cccc(-c3ccc(-c4cnn(C5CCNCC5)c4)cn3)n2)cn1
4. COCC(C)Oc1nc(Nc2cc(C)ns2)nc2ccn(-c3cnn(C)c3)c12 (centres unmarked)
5. Cc1cc(Nc2nc(N[C@H]3C[C@@H](N4CCCCC4)C3)c3c(ccn3-c3cnn(C)c3)n2)sn1
6. Cc1cccc(-n2ncc3c(C#N)cc(-c4cccc(C(C)N)n4)cc32)n1 (centres unmarked)
7. O=C(CCCc1cn(-c2ccccc2)c(NC(=O)c2cccc(-c3cn[nH]c3)c2)n1)Nc1ccccc1F

Result string:
> 5.30
8.22
6.00 to 7.00
6.00 to 7.00
6.00 to 7.00
> 7.00
> 7.30

Count: 4. Required value per item: pIC50.
1. Cc1cc(Nc2nc(N[C@@H]3CCOC3)c3c(ccn3-c3cnn(C)c3)n2)sn1
2. CC(C)(O)[C@H]1CC[C@H](NC(=O)c2cnc(-c3cnn4cc(Cl)cnc34)cc2NC2COC2)CC1
3. Cc1n[nH]c(C)c1CCn1cc(-c2cnc(-n3ncc4cc(C#N)cnc43)cc2NC(C)C)nn1
4. CN(C)[C@H]1CC[C@H](Oc2ncnc3sc4c(c23)[C@@H](COCC(N)=O)CC4)CC1

Result string:
6.00 to 7.00
8.40
8.40
> 5.30

====

We begin with IC50 values for IRAK4 (Homo sapiens (Human)), as collected from the published literature.

COC(=O)CCCCc1cn(-c2ccccc2)c(NC(=O)c2cccc(-c3cn[nH]c3)c2)n1 | < 50 nM
CC(=O)NC[C@H]1C[C@@H](Nc2nc(-c3cccc(-c4cnn(C)c4)c3)ncc2-c2cnn(C)c2)C1 | 100 to 1000 nM
COC(=O)c1cc(-c2cccc(C(C)N)n2)cc2c1cnn2-c1cccc(C(F)(F)F)n1 (stereo not shown) | < 100 nM

Please look at the items below and tell me IC50 for each one, in order.
1. COCCC1CCc2sc3ncnc(O[C@H]4CC[C@H](N(C)C)CC4)c3c21 (stereo partly shown)
2. N[C@H](c1cccc(-c2ccc3cnn(-c4cccc(CO)n4)c3c2)n1)C1CC(CO)C1 (stereo partly shown)
3. CN(C)[C@H]1CC[C@H](Oc2ncnc3sc4c(c23)[C@@H](CC(=O)Nc2ccc(F)cn2)CC4)CC1
4. Cc1cccc(-n2ncc3ccc(-c4cccc(C(N)=O)n4)cc32)n1

Result string:
1: < 5000 nM; 2: ≤ 100 nM; 3: < 5000 nM; 4: 100 to 1000 nM
